# melting point values compiled below

| compound | melting point |
| --- | --- |
| CCCn1c(=O)n2c(-c3cccs3)nnc2c2c1ncn2C | 206 to 207 °C |
| Cc1cc(Br)cnc1CCCCNc1ncc(Cc2ccccc2)c(=O)[nH]1 | 138 to 139 °C |
| Cc1cc(O)cc(C)c1Sc1ccccn1 | 190 °C |
| CC1(C)OC(=O)Nc2ccc(-c3sccc3C#N)cc21 | 200 to 202 °C |
| CCOC(=O)CNC(=O)CC(O)CCl (stereo unspecified) | 53 to 54 °C |
| CN1CCC(=Cc2cc(C(C)(C)C)c(O)c(C(C)(C)C)c2)C1=O | 185 °C |
| OC1=Cc2ccccc2C=Cc2ccccc21 | 120 to 121 °C |
| COc1cccc([C@@]23CCC[C@@H]2C(=O)N(C)CCC3)c1 (relative stereo) | 96 to 99 °C |
| N#Cc1ccc(NC(=O)c2cccc(S(=O)(=O)N3CCOCC3)c2)c(-c2n[nH]c(=O)o2)c1 | 283 to 285 °C |
| Cc1cc(/C=C/C(=O)O)c(C)n1-c1ccc(C(=O)N(C)C)cc1 | 182 to 184 °C |
| NC(=O)Nc1cccc(CO)c1 | 188 to 202 °C |
| CC(C)Sc1cc([Si](C)(C)C)oc1C(=O)O | 181 to 183 °C |
| COC(=O)c1c(C)n(-c2ccccc2)c(C)c(C(=O)OC)c1=O | 215 °C |
| CC(C)C[C@H](NC(=O)OCC1c2ccccc2-c2ccccc21)C(=O)N[C@H]1CCOC1=O | 175 to 176 °C |
| CCC1(CC(=O)O)OCCc2c1[nH]c1c(OCC(F)(F)F)c(Cl)ccc21 (stereo unspecified) | 157 °C |
| CCOC1=C(CCCCCCC(=O)O)C(=O)CC1 | 65 to 66 °C |
| CSC1=C(C#N)C(c2ccc(N(C)C)cc2)(c2cccnc2)C(=O)N1CCCN(C)C (stereo unspecified) | 90 to 91 °C |
| O=[N+]([O-])c1cc(CN(CCN=C=S)CCN=C=S)cc(CN(CCN=C=S)CCN=C=S)c1 | 62 to 64 °C |
| C#CC1(O)CCc2c(O)c3c(c(O)c2C1)C(=O)c1ccccc1C3=O (stereo unspecified) | 230 °C |
| O=S(=O)(CCN1CCOCC1)Nc1cc(C(c2cc(F)ccc2F)S(=O)(=O)c2ccc(Cl)cc2)c(Cl)cn1 (stereo unspecified) | 219 to 221 °C |
| CC1(C)CC(=O)c2c(NCCCn3ccnc3)sc(-c3cc[nH]n3)c2C1 | 85 °C |

meta.source: a melting point compilation (Tetko et al.; mined from patent text by program, amines drawn as free bases though some values may be those of a salt)
